# ASSAY_OVERVIEW: Bidirectional transport in MDCK control cells (passive permeability)
# Assay type: in vitro ADME
# TEST_CONTEXT: dog, MDCK
RECORDED_METRIC: Papp B→A at 50 μM
Kindly format the answer as number then unit.

Name the recorded Papp B→A at 50 μM for COC[C@H](NC(=O)c1ccn(S(C)(=O)=O)c1)C(=O)Nc1nc(-c2cccc(N3C[C@@H](C)O[C@@H](C)C3)n2)cs1 .
18.5 ×10⁻⁶ cm/s

* * *

# ASSAY_OVERVIEW: Bidirectional transport in MDCK control cells (passive permeability)
# Type: in vitro ADME
# TEST_CONTEXT: dog, MDCK, BCRP assay; 1 μM compound of formula (I)
RECORDED_METRIC: Papp A→B at 1 μM (nm/s)
Entry rule: numbers only, all in nm/s.

Name the recorded Papp A→B at 1 μM for COC[C@H](NC(=O)c1ccn(S(C)(=O)=O)c1)C(=O)Nc1nc(-c2cccc(N3C[C@@H](C)O[C@@H](C)C3)n2)cs1 .
260

* * *

# ASSAY_OVERVIEW: Bidirectional transport in MDCK control cells (passive permeability)
# Format: in vitro ADME
# TEST_CONTEXT: dog, MDCK
RECORDED_METRIC: Papp B→A at 1 μM
Kindly format the answer as number then unit.

Name the recorded Papp B→A at 1 μM for COC[C@H](NC(=O)c1ccn(S(C)(=O)=O)c1)C(=O)Nc1nc(-c2cccc(N3C[C@@H](C)O[C@@H](C)C3)n2)cs1 .
18.2 ×10⁻⁶ cm/s

* * *

# ASSAY_OVERVIEW: Bidirectional transport in MDCK control cells (passive permeability)
# Type: in vitro ADME
# TEST_CONTEXT: dog, MDCK, P-gp assay; 10 μM compound of formula (I)
RECORDED_METRIC: Papp A→B at 10 μM (×10⁻⁶ cm/s)
Entry rule: numbers only, all in ×10⁻⁶ cm/s.

Name the recorded Papp A→B at 10 μM for COC[C@H](NC(=O)c1ccn(S(C)(=O)=O)c1)C(=O)Nc1nc(-c2cccc(N3C[C@@H](C)O[C@@H](C)C3)n2)cs1 .
31

* * *

# Test system: CYP3A4/5
# ASSAY_OVERVIEW: CYP enzyme inhibition in pooled human liver microsomes, CYP3A4/5
# TEST_CONTEXT: human, pooled human liver microsomes, probe midazolam (1′-hydroxylation), Enzyme activity (% inhibition), No Pre-incubation, CYP3A4/5; 30 μM; probe Midazolam; PHLM
RECORDED_METRIC: inhibition at 30 µM (%)
Entry rule: numbers only, all in %.

Name the recorded inhibition at 30 µM for COC[C@H](NC(=O)c1ccn(S(C)(=O)=O)c1)C(=O)Nc1nc(-c2cccc(N3C[C@@H](C)O[C@@H](C)C3)n2)cs1 [compound of formula (I)] .
13.6

* * *

# TARGET_DESC: CYP2D6 (Homo sapiens, UniProt P10635)
# Sequence (P10635 whole entry): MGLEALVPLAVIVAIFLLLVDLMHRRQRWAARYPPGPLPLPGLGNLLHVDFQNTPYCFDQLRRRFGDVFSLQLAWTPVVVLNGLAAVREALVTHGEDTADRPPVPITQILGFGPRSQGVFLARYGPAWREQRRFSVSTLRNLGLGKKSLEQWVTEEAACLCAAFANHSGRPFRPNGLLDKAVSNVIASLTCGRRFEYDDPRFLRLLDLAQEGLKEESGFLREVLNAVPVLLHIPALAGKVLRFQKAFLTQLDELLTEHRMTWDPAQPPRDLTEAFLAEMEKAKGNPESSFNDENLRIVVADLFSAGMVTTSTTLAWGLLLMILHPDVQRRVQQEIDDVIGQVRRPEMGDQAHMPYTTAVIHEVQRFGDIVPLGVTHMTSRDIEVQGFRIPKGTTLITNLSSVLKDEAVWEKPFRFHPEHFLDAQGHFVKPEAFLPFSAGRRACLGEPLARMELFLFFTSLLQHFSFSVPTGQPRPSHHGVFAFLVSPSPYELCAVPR
RECORDED_METRIC: IC50

Name the recorded IC50 for COC[C@H](NC(=O)c1ccn(S(C)(=O)=O)c1)C(=O)Nc1nc(-c2cccc(N3C[C@@H](C)O[C@@H](C)C3)n2)cs1 [compound of formula (I)] .
> 30 µM

* * *

# ASSAY_OVERVIEW: Bidirectional transport in MDCK control cells (passive permeability)
# Assay type: in vitro ADME
# TEST_CONTEXT: dog; MDCK control cells; read-out: apparent permeability coefficient (Papp) (B→A) or Papp (A→B)
RECORDED_METRIC: Papp

Name the recorded Papp for COC[C@H](NC(=O)c1ccn(S(C)(=O)=O)c1)C(=O)Nc1nc(-c2cccc(N3C[C@@H](C)O[C@@H](C)C3)n2)cs1 .
≥ 15 ×10⁻⁶ cm/s

* * *

# TARGET_DESC: BCRP (Homo sapiens, UniProt Q9UNQ0)
# Construct: expressed in transfected cells; host or cells: MDCK-II
# Sequence (Q9UNQ0 whole entry): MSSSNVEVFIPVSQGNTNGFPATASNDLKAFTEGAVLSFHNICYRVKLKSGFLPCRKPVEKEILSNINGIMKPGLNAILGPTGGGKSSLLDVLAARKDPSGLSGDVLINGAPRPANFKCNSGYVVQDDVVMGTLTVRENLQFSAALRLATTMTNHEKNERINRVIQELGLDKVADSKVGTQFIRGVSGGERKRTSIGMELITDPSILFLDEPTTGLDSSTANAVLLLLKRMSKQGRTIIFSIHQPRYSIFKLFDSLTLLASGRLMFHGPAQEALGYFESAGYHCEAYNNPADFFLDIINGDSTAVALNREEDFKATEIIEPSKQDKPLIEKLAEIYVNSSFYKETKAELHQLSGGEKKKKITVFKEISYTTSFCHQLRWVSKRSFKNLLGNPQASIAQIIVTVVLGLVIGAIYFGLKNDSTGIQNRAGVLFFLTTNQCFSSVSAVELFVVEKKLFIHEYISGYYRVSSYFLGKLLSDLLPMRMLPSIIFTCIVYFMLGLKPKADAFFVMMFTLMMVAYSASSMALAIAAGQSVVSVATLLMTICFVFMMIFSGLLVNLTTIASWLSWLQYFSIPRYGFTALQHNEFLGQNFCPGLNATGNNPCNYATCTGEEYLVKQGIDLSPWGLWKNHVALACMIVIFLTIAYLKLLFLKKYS
# ASSAY_OVERVIEW: Bidirectional transport in MDCK-II cells expressing BCRP
# Assay type: in vitro ADME
# TEST_CONTEXT: human; read-out: Papp A→B, in transporter cells
RECORDED_METRIC: Papp A→B at 50 μM (×10⁻⁶ cm/s)
Entry rule: numbers only, all in ×10⁻⁶ cm/s.

Name the recorded Papp A→B at 50 μM for COC[C@H](NC(=O)c1ccn(S(C)(=O)=O)c1)C(=O)Nc1nc(-c2cccc(N3C[C@@H](C)O[C@@H](C)C3)n2)cs1 .
22.4

* * *

# TARGET_DESC: BCRP (Homo sapiens, UniProt Q9UNQ0)
# Construct: expressed in transfected cells; host or cells: MDCK-II
# ASSAY_OVERVIEW: Bidirectional transport in MDCK-II cells expressing BCRP
# Format: in vitro ADME
# TEST_CONTEXT: human; read-out: Papp A→B, in transporter cells
RECORDED_METRIC: Papp A→B at 10 μM (×10⁻⁶ cm/s)
Entry rule: numbers only, all in ×10⁻⁶ cm/s.

Name the recorded Papp A→B at 10 μM for COC[C@H](NC(=O)c1ccn(S(C)(=O)=O)c1)C(=O)Nc1nc(-c2cccc(N3C[C@@H](C)O[C@@H](C)C3)n2)cs1 [compound of formula (I)] .
16.5

* * *

# ASSAY_OVERVIEW: Bidirectional transport in MDCK control cells (passive permeability)
# Format: in vitro ADME
# TEST_CONTEXT: dog, MDCK, BCRP assay; 50 μM compound of formula (I)
RECORDED_METRIC: Papp B→A at 50 μM (×10⁻⁶ cm/s)
Entry rule: numbers only, all in ×10⁻⁶ cm/s.

Name the recorded Papp B→A at 50 μM for COC[C@H](NC(=O)c1ccn(S(C)(=O)=O)c1)C(=O)Nc1nc(-c2cccc(N3C[C@@H](C)O[C@@H](C)C3)n2)cs1 .
19.2

* * *

# TARGET_DESC: CYP2C19 (Homo sapiens)
# Sequence (P33261 whole entry): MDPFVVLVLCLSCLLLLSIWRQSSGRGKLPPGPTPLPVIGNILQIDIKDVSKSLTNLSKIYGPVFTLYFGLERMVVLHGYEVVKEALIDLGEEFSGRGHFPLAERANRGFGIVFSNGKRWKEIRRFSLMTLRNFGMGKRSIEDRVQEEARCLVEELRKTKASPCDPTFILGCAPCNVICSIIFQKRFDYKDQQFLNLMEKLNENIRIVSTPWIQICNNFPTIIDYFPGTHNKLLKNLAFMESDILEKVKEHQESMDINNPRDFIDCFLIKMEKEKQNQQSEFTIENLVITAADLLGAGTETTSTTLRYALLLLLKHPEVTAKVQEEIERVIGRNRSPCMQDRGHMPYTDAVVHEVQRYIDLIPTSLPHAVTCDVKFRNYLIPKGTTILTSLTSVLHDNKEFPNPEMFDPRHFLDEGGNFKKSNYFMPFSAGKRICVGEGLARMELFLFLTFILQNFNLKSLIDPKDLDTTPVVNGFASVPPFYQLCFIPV
# ASSAY_OVERVIEW: CYP enzyme inhibition in pooled human liver microsomes, CYP2C19
# TEST_CONTEXT: human, microsomes, Enzyme activity (% inhibition), No Pre-incubation, CYP2C19; 30 μM; probe S-Mephenytoin; PHLM
RECORDED_METRIC: inhibition at 30 µM (%)
Entry rule: numbers only, all in %.

Name the recorded inhibition at 30 µM for COC[C@H](NC(=O)c1ccn(S(C)(=O)=O)c1)C(=O)Nc1nc(-c2cccc(N3C[C@@H](C)O[C@@H](C)C3)n2)cs1 .
23.1

Entry source: patent US20240189318A1
